Cited source: ChEMBL document CHEMBL5724914

experiment: The drug is tested on Z-028 corresponding to mouse gut metagenome with ENA study accession number: PRJEB37062 and ENA sample accession number: ERS12561827 for biotransformation under anaerobic condition. The drug concentrations were measured over 9 timepoints collected between 0 and 24 hours of incubation by liquid-chromatography-coupled mass spectrometry (LC–MS); conditions: 2 µM; note: call rule not given here
quantity.kind: Bacterial Biotransformation

| compound | Bacterial Biotransformation |
| --- | --- |
| CC#C[C@]1(O)CC[C@H]2[C@@H]3CCC4=CC(=O)CCC4=C3[C@@H](c3ccc(N(C)C)cc3)C[C@@]21C | Compound NOT metabolized |
| C=CC[C@@H]1/C=C(\C)C[C@H](C)C[C@H](OC)[C@H]2O[C@@](O)(C(=O)C(=O)N3CCCC[C@H]3C(=O)O[C@H](/C(C)=C/[C@@H]3CC[C@@H](O)[C@H](OC)C3)[C@H](C)[C@@H](O)CC1=O)[C@H](C)C[C@@H]2OC.O | Compound NOT metabolized |
| C[C@]12C=CC(=O)C=C1CC[C@@H]1[C@@H]2C(=O)C[C@@]2(C)[C@H]1CC[C@]2(O)C(=O)CO | Compound metabolized |
| CCN(CC)CCNC(=O)c1cc(S(C)(=O)=O)ccc1OC [TIAPRIDE] | Compound NOT metabolized |
| CSc1ccc2c(c1)C(N1CCN(C)CC1)Cc1ccccc1S2.O=C(O)/C=C\C(=O)O (configuration not stated) | Compound NOT metabolized |
| Cc1cc(C)cc(OCC2CNC(=O)O2)c1 (configuration not stated) | Compound NOT metabolized |

Lab note: next compound to report on.
(Q) Fill blank: measured Bacterial Biotransformation of the compound N#Cc1ccc2[nH]cc(CCCCN3CCN(c4ccc5oc(C(N)=O)cc5c4)CC3)c2c1 is ____.
(A) Compound metabolized

====

assay: The drug is tested on Z-007 corresponding to rat gut metagenome with ENA study accession number: PRJEB37062 and ENA sample accession number: ERS12561807 for biotransformation under anaerobic condition. The drug concentrations were measured over 9 timepoints collected between 0 and 24 hours of incubation by liquid-chromatography-coupled mass spectrometry (LC–MS); details: 2 µM
quantity.kind: Bacterial Biotransformation

Consider the following illustrative entries.
| compound | quantity.kind | experimental.result |
| --- | --- | --- |
| CN1CCCCC1CCN1c2ccccc2Sc2ccc([S+](C)[O-])cc21.O=S(=O)(O)c1ccccc1 (configuration not stated) [MESORIDAZINE BESYLATE] | Bacterial Biotransformation | Compound NOT metabolized |
| CCCN1C[C@H](CSC)C[C@@H]2c3cccc4[nH]cc(c34)C[C@H]21.CS(=O)(=O)O [PERGOLIDE MESYLATE] | Bacterial Biotransformation | Compound NOT metabolized |
| CC(=O)O[C@H]1C(=O)[C@@]2(C)[C@H]([C@H](OC(=O)c3ccccc3)[C@]3(O)C[C@H](OC(=O)[C@H](O)[C@@H](NC(=O)c4ccccc4)c4ccccc4)C(C)=C1C3(C)C)[C@]1(OC(C)=O)CO[C@@H]1C[C@@H]2O [PACLITAXEL] | Bacterial Biotransformation | Compound NOT metabolized |
| CCCCCNC(=N)N/N=C/c1c[nH]c2ccc(OC)cc12.O=C(O)/C=C\C(=O)O [TEGASEROD MALEATE] | Bacterial Biotransformation | Compound NOT metabolized |
| CCOC(=O)C1=C[C@]2(CC)CCCN3CCc4c(n1c1ccccc41)[C@@H]32 [VINPOCETINE] | Bacterial Biotransformation | Compound NOT metabolized |

(Q) Fill blank: measured Bacterial Biotransformation of the compound COc1cc(C(=O)NCc2ccc(OCCN(C)C)cc2)cc(OC)c1OC [TRIMETHOBENZAMIDE] is ____.
(A) Compound NOT metabolized
